Consider the following binders; for each one, report its interaction score.
Biological target: T1, 4H619-bN
T1 chain: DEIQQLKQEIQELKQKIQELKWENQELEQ
Assay: two-hybrid library CCNG1;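 note: natural log of median RNA to DNA barcode read ratio; higher means stronger binding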
Please respond with just the number, no unit label.

### Prompt Could you tell me which interaction score is on file for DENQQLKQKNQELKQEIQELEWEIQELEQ [4H1985-bN] ?
### Response -1.93

### Prompt Subsequent entry: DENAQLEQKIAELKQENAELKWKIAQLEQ [4H1373-bA]
### Response -0.473

### Prompt Subsequent entry: DKNQQLEQEIQELKQKIQELEWENQELKQ [4H3172-bN]
### Response 0.271

### Prompt Subsequent entry: DKNQQLKQEIQELEQKIQELKWKNQELEQ [4H3631-bN]
### Response -0.252

### Prompt Subsequent entry: DEIQQLKQEIQELKQEIQELEWKNQELKQ [4H584-bN]
### Response 1.21

### Prompt Subsequent entry: DKNQQLKQEIQELEQKNQELEWKIQELKQ [4H3638-bN]
### Response -1.26

### Prompt Subsequent entry: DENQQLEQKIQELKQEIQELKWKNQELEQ [4H1359-bN]
### Response -1.38

### Prompt Subsequent entry: DEIQQLKQEIQELKQKIQELKWENQELEQ [4H619-bN]
### Response 1.24
